target: Neu5Ac(a2-3)Gal(b1-3)GlcNAc(b1-3)Gal(b1-3)GlcNAc; assay: glycan array binding signal (z-score within array); higher = stronger binding; settings: glycan notation: IUPAC condensed, linker removed
Many of the other results were omitted from the sample, so the strongest signals are more common in it than they were.
Hi there, I'd appreciate the recorded glycan array binding signal (z-score) for every entry that follows.
Numbers only.

[
  {
    "Binder": "LF82 (Escherichia coli) (protein) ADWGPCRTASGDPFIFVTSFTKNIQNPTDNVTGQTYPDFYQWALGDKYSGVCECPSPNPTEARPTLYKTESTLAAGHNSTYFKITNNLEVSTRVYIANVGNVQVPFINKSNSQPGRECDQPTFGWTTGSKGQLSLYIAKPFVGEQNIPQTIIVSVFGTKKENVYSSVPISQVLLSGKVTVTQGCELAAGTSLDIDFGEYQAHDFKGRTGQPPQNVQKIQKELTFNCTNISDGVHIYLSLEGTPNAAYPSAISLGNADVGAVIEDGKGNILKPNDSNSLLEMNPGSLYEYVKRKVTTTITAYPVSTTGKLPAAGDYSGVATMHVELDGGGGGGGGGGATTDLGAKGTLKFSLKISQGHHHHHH",
    "Result": -0.469
  },
  {
    "Binder": "Epa7 (Candida glabrata), Q6DTM6_CANGB (protein) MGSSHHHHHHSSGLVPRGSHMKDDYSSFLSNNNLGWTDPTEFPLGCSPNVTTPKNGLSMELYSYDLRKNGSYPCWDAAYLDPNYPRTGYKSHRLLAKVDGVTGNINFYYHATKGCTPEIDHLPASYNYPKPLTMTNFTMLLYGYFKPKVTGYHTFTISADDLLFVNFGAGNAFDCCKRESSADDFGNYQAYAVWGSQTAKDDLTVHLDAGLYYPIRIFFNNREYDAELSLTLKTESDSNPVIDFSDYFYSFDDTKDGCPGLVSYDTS",
    "Result": -0.256
  },
  {
    "Binder": "Pwp2 (Candida glabrata) (protein) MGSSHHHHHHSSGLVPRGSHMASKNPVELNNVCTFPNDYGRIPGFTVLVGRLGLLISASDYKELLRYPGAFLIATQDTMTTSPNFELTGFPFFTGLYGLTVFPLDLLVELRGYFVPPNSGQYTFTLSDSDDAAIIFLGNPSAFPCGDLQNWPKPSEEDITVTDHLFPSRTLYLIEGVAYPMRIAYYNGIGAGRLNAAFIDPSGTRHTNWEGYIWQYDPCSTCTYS",
    "Result": -0.269
  }
]

State the recorded glycan array binding signal (z-score) for every item in the following list.
1. AidA (Burkholderia cenocepacia) (protein) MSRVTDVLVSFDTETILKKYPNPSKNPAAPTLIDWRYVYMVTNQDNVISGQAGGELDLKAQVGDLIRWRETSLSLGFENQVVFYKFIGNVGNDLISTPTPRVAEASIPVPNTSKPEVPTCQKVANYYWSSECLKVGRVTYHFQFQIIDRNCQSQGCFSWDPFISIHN
2. rPitB (Streptococcus pneumoniae), A0A0I7U739 (protein) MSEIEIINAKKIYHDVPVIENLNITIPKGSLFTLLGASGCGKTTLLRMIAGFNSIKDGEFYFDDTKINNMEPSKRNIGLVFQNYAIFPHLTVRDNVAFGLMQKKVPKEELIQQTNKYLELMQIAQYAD
3. Epa20 (Candida glabrata) (protein) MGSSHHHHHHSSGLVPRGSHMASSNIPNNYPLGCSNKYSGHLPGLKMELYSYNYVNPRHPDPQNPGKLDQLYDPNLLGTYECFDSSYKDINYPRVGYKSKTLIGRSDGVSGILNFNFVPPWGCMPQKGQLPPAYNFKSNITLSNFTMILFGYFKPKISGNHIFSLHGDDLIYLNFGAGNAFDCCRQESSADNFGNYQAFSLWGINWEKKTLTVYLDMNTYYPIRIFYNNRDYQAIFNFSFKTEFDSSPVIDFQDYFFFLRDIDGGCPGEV
4. cupB6 (Pseudomonas aeruginosa), Q02SP7 (protein) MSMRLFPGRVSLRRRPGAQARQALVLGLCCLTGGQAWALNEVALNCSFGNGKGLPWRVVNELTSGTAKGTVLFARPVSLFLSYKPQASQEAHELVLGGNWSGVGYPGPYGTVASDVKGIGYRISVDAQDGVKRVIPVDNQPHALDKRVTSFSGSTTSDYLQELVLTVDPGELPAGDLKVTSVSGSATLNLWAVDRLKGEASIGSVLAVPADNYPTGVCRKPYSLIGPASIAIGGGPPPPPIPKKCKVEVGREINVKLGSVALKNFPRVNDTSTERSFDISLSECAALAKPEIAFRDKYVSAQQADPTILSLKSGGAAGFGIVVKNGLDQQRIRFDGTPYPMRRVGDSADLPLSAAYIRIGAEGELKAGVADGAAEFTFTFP

Result:
[-0.146, -0.301, -0.76, 0.048]
